System: Ruminococcus gnavus DSM 108212
Assay: growth (OD595) fold change vs plate DMSO controls (fold change (ratio)); higher = more growth
Details: incubation time: 27 h, anaerobic, 37 °C
Structures can show the parent of a compound that is named as a salt.
# growth listing for each entry below
Outcome measure: growth

{"Molecule": "Nc1nc2c(ncn2COC(CO)CO)c(=O)[nH]1 [Ganciclovir] (20 µM)", "Measured": 1.07}
{"Molecule": "O=C(O[C@@H]1C[C@@H]2C[C@H]3C[C@H](C1)N2CC3=O)c1c[nH]c2ccccc12 [Dolasetron mesilate] (20 µM)", "Measured": 1.07}
{"Molecule": "CC(C)(C)c1ccc(C(=O)CCCN2CCC(OC(c3ccccc3)c3ccccc3)CC2)cc1 [Ebastine] (20 µM)", "Measured": 0.852}
{"Molecule": "COC(=O)C1=C(C)NC(C)=C(C(=O)OC2CCCN(Cc3ccccc3)C2)C1c1cccc([N+](=O)[O-])c1 (centres undefined) [Benidipine hydrochloride] (20 µM)", "Measured": 0.864}
{"Molecule": "CC(=O)OC(C)OC(=O)C(C)c1ccc(-c2ccccc2)c(F)c1 (centres undefined) [Flurbiprofen axetil] (20 µM)", "Measured": 0.996}
{"Molecule": "C=C1c2c(Cl)ccc(O)c2C(O)=C2C(=O)[C@]3(O)C(O)=C(C(N)=O)C(=O)[C@@H](N(C)C)[C@@H]3[C@@H](O)[C@H]12.O=C(O)c1cc(S(=O)(=O)O)ccc1O [Meclocycline sulfosalicylate] (20 µM)", "Measured": 0.113}
{"Molecule": "CC(=O)Nc1ccc(OCC(O)CNC(C)C)cc1 (centres undefined) [Practolol] (20 µM)", "Measured": 1.17}
{"Molecule": "Cc1nnc(SCC2=C(C(=O)O)N3C(=O)[C@@H](NC(=O)Cn4cnnn4)[C@H]3SC2)s1 [Cefazolin sodium salt] (20 µM)", "Measured": 0.0483}
{"Molecule": "O=C(O)c1cc(=O)c2ccccc2o1 [Chromocarb] (20 µM)", "Measured": 0.957}
{"Molecule": "CCN(CCO)CCCC(C)Nc1ccnc2cc(Cl)ccc12 (centres undefined) [Hydroxychloroquine sulfate] (20 µM)", "Measured": 0.855}
{"Molecule": "CC1(C)O[C@@H]2C[C@H]3[C@@H]4C[C@H](F)C5=CC(=O)C=C[C@]5(C)[C@@]4(F)[C@@H](O)C[C@]3(C)[C@]2(C(=O)CO)O1 [Fluocinolone acetonide] (20 µM)", "Measured": 0.973}
{"Molecule": "CN[C@@H]1[C@@H](O[C@H]2O[C@H](CO)[C@@H](N)[C@H](O)[C@H]2O)OC2C[C@@H](N)[C@@H](O[C@H]3[C@H](O)[C@@H](O)[C@H](N)C[C@@H]3N)OC2[C@@H]1O (some centres undefined) [Apramycin] (20 µM)", "Measured": 1.03}
{"Molecule": "CC1=C(C(=O)O)N2C(=O)[C@@H](NC(=O)[C@H](N)C3=CCC=CC3)[C@H]2SC1 [Cephradine monohydrate] (20 µM)", "Measured": 1.07}
{"Molecule": "C=CCSCC1Nc2cc(Cl)c(S(N)(=O)=O)cc2S(=O)(=O)N1 (centres undefined) [Althiazide] (20 µM)", "Measured": 1.02}
{"Molecule": "OCCN1CCN(CCCN2c3ccccc3Sc3ccc(C(F)(F)F)cc32)CC1 [Fluphenazine dihydrochloride] (20 µM)", "Measured": 0.85}
{"Molecule": "CC[N+](CC)(CC)CCOc1cccc(OCC[N+](CC)(CC)CC)c1OCC[N+](CC)(CC)CC [Gallamine triethiodide] (20 µM)", "Measured": 0.905}
{"Molecule": "N[C@H]1CONC1=O [(S,-) Cycloserine] (20 µM)", "Measured": 0.975}
{"Molecule": "CC[C@H](C)[C@H](N)C1=N[C@H](C(=O)N[C@@H](CC(C)C)C(=O)N[C@H](CCC(=O)O)C(=O)N[C@H](C(=O)N[C@H]2CCCCNC(=O)[C@H](CC(N)=O)NC(=O)[C@@H](CC(=O)O)NC(=O)[C@H](Cc3cnc[nH]3)NC(=O)[C@@H](Cc3ccccc3)NC(=O)[C@H]([C@@H](C)CC)NC(=O)[C@@H](CCCN)NC2=O)[C@@H](C)CC)CS1 [Bacitracin] (20 µM)", "Measured": 0.0384}
{"Molecule": "CN(C(=O)CN(CCO)CC(=O)N(C)C(C)(C)Cc1ccccc1)C(C)(C)Cc1ccccc1 [Oxethazaine] (20 µM)", "Measured": 0.384}
